- experiment.description: chemical genetic growth profiling, strain panel (AID 1159580);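 also: tested at 20 µM; growth read once vehicle control cultures reached saturation at 30 °C; 1 = growth at the plate median or of vehicle wells; lower values mean less growth of the strain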
- cond: S. cerevisiae deletion strains, growth OD, locus YOR265W, strain rbl2, stronger effect = lower value
In all, about 5,500 compounds went through this assay and about 2,000 (36%) were called active. About 18% were inconclusive and are not listed. The list shows a part of the results.
property.name: normalized growth

[
  {
    "molecule": "CC(=CC1CCC(C)C2C1=C(C)CC2O)C(=O)O (stereo not drawn)",
    "result.number": 1.02
  },
  {
    "molecule": "CC(=CC1CCC(C)C2CCC(C)=C12)C(=O)O (stereo not drawn)",
    "result.number": 0.956
  },
  {
    "molecule": "CC(C)c1cc2c(c(O)c1O)[C@@]1(C(=O)O)CCCC(C)(C)C1CC2 (stereo partly drawn)",
    "result.number": 0.982
  },
  {
    "molecule": "COc1cc([C@@H]2c3cc4c(cc3[C@H](O)[C@H]3COC(=O)[C@H]23)OCO4)cc(OC)c1OC",
    "result.number": 1.01
  },
  {
    "molecule": "COc1ccccc1OCC(O)COC(N)=O (stereo not drawn)",
    "result.number": 0.992
  },
  {
    "molecule": "CNC(C)(C)Cc1ccccc1",
    "result.number": 1.01
  },
  {
    "molecule": "Oc1cccc2cccnc12",
    "result.number": 0.0565
  },
  {
    "molecule": "COc1ccc(-c2c(O)c3c(OC)c4c(cc3oc2=O)OC(C)(C)C=C4)cc1",
    "result.number": 0.937
  },
  {
    "molecule": "CC(C)=CCC/C(C)=C/CO",
    "result.number": 0.989
  },
  {
    "molecule": "O=C1C=C(O)c2ccccc2C1=O",
    "result.number": 0.944
  },
  {
    "molecule": "NC(=NCCCCCCN=C(N)N=C(N)Nc1ccc(Cl)cc1)N=C(N)Nc1ccc(Cl)cc1",
    "result.number": 0.0543
  },
  {
    "molecule": "O=C(Nc1ccc([N+](=O)[O-])cc1Cl)c1cc(Cl)ccc1O",
    "result.number": 0.928
  },
  {
    "molecule": "NNCc1ccccc1",
    "result.number": 1
  }
]

Each recorded value in this set is attributed to PubChem BioAssay AID1159580.
